Hi there, I'd appreciate the recorded fluorescence index for every entry that follows.
Target: T1, class I MHC receptor HLA-A2 on T2 cells (human)
T1 construct: detected on the cell surface with a mouse anti-human HLA-A2 monoclonal antibody and goat anti-mouse IgG F(ab')2-FITC; also called HLA-A2 receptor; HLA-A2 class I MHC
Assay: T2 cells, anti-HLA-A2 flow cytometry after brefeldin A; Average; 2 hr
I only need the number, in F.I., no unit after it.

fluorescence index measured on GLAPLEVRV [Filamin B peptide #3] = 3.82

fluorescence index measured on SLQESGLKV [Filamin B peptide #4] = 1.4

fluorescence index measured on GQGDVMVFV [Filamin B peptide #6] = 1.67

fluorescence index measured on LILGLVWTL [Filamin B peptide #1] = 2.67

fluorescence index measured on KLILGLVWT [Filamin B peptide #7] = 1.16
